Source listed as ChEMBL document CHEMBL1123284.

biological target: Angiotensin II receptor (Rattus norvegicus) (UniProt P29089+P25095+P35351); experiment: Angiotensin II receptor agonist activity was tested in rat isolated uterus assay using [Asp1,Ile5]ANG II (human angiotensin II) as the standard; assay type: functional, tissue-based
endpoint.name: Activity (%)

[[record]]
line_notation = "CCOc1ccc(C[C@H](NC(=O)[C@@H](NC(=O)[C@H](CCCN=C(N)N)NC(=O)CNC)C(C)C)C(=O)N[C@H](C(=O)N[C@@H](Cc2c[nH]cn2)C(=O)N2CCC[C@H]2C(=O)N[C@@H](Cc2ccccc2)C(=O)O)[C@@H](C)CC)cc1"
assayed_target = "Angiotensin II receptor (Rattus norvegicus) (UniProt P29089+P25095+P35351)"
unit_of_measure = "%"
result_modifier = "="
recorded_result = 0.2

[[record]]
line_notation = "CC[C@H](C)[C@H](NC(=O)[C@@H]1C[C@@H](O)CN1C(=O)[C@@H](NC(=O)[C@H](CCCN=C(N)N)NC(=O)CNC)C(C)C)C(=O)N[C@@H](Cc1c[nH]cn1)C(=O)N1CCC[C@@H]1C(=O)N[C@@H](Cc1ccccc1)C(=O)O"
assayed_target = "Angiotensin II receptor (Rattus norvegicus) (UniProt P29089+P25095+P35351)"
unit_of_measure = "%"
result_modifier = "<"
recorded_result = 0.1

